A collection of compounds and their measured pIC50
- targetEntity: TNFα (Homo sapiens)
- Construct: a human whole blood assay driven by endogenously expressed TNFα; endogenous in cells; host or cells: EDTA anticoagulated human whole blood, stimulated with 1 ug/ml zymosan
- Sequence (P01375 77-233 limits assumed): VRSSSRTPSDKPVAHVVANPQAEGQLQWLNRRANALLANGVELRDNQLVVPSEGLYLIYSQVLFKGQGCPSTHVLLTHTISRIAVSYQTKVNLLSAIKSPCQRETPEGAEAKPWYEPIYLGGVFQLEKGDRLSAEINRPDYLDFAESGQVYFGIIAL
- measurementNotes: TNF human whole blood screening assay: CD11b expression on granulocytes after zymosan challenge
- Type: cell-based
- testSettings: whole blood IC50 multiplied by the unbound fraction (Fu) in human blood; read-out: free IC50 in the human whole blood assay
pIC50: −log10 of the molar value.

C[C@]1(C#N)C[C@](O)(c2ncc(-c3ccc4nc5n(c4c3)[C@@H]3C[C@H]5NC(=O)c4cccc(OC(F)F)c43)cn2)C1	~7.92

Req: Look at this compound and give its reported pIC50. CN1C(=O)c2cccc(OC(F)F)c2[C@H]2C[C@@H]1c1nc3ccc(-c4cnc([C@]5(C#N)C[C@@](C)(O)C5)nc4)cc3n12
Resp: > 8.40

Req: Note, next up: CN1C(=O)c2cccc(OC(F)F)c2[C@H]2C[C@@H]1c1nc3ccc(-c4cnc([C@]5(O)C[C@@](C)(C#N)C5)c(F)c4)cc3n12
Resp: > 8.40
